Items are presented alongside their recorded binding signal.
# Target entity: dAsCas12a E174R (Acidaminococcus sp., UniProt U2UMQ6 1-1307, E174R;D908A;E993A;D1235A)
# Assay text: Spec-seq (native PAGE EMSA with sequencing of bound and unbound); 25 mM Tris-HCl pH 7.4, 150 mM KCl, 5 mM MgCl2, 10% glycerol, 1 mM DTT, 40 ng/uL salmon sperm DNA; 400 nM Cas12a, 480 nM crRNA, 50 nM library, 37 C 1 h; native PAGE at room temperature; high values mean tight binding;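 further: relative affinity from the bound to unbound sequence frequency ratio in Spec-seq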
# Measurement conditions: protein: recombinant
Write the answer as a number in lnKA, unit excluded.

Binder: AGAA (dsDNA) DNA 1: GCTATCTAGTGCTCAGTACGCACTGAGAAAGGAAACTTCTGGCAGGACCAGGTCATGAGATCGGAAGAGCACACGTCTGAACTCCAGTCA DNA 2: TGACTGGAGTTCAGACGTGTGCTCTTCCGATCTCATGACCTGGTCCTGCCAGAAGTTTCCTTTCTCAGTGCGTACTGAGCACTAGATAGC RNA: AAUUUCUACUCUUGUAGAUAGGAAACUUCUGGCAGGACC
binding signal (lnKA): -8.92
//
Binder: AGTG (dsDNA) DNA 1: GCTATCTAGTGCTCAGTACGCACTGAGTGAGGAAACTTCTGGCAGGACCAGGTCATGAGATCGGAAGAGCACACGTCTGAACTCCAGTCA DNA 2: TGACTGGAGTTCAGACGTGTGCTCTTCCGATCTCATGACCTGGTCCTGCCAGAAGTTTCCTCACTCAGTGCGTACTGAGCACTAGATAGC RNA: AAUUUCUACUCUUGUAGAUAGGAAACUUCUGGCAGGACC
binding signal (lnKA): -8.75
//
Binder: TCTA (dsDNA) DNA 1: GCTATCTAGTGCTCAGTACGCACTGTCTAAGGAAACTTCTGGCAGGACCAGGTCATGAGATCGGAAGAGCACACGTCTGAACTCCAGTCA DNA 2: TGACTGGAGTTCAGACGTGTGCTCTTCCGATCTCATGACCTGGTCCTGCCAGAAGTTTCCTTAGACAGTGCGTACTGAGCACTAGATAGC RNA: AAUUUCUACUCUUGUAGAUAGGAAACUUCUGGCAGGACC
binding signal (lnKA): -2.54

Notebook: TTAA (dsDNA) DNA 1: GCTATCTAGTGCTCAGTACGCACTGTTAAAGGAAACTTCTGGCAGGACCAGGTCATGAGATCGGAAGAGCACACGTCTGAACTCCAGTCA DNA 2: TGACTGGAGTTCAGACGTGTGCTCTTCCGATCTCATGACCTGGTCCTGCCAGAAGTTTCCTTTAACAGTGCGTACTGAGCACTAGATAGC RNA: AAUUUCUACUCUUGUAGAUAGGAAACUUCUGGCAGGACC , binding signal read as -7.28

Input GGTT (dsDNA) DNA 1: GCTATCTAGTGCTCAGTACGCACTGGGTTAGGAAACTTCTGGCAGGACCAGGTCATGAGATCGGAAGAGCACACGTCTGAACTCCAGTCA DNA 2: TGACTGGAGTTCAGACGTGTGCTCTTCCGATCTCATGACCTGGTCCTGCCAGAAGTTTCCTAACCCAGTGCGTACTGAGCACTAGATAGC RNA: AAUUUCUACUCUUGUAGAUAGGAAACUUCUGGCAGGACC . Output binding signal: -8.64

Given item GTAA (dsDNA) DNA 1: GCTATCTAGTGCTCAGTACGCACTGGTAAAGGAAACTTCTGGCAGGACCAGGTCATGAGATCGGAAGAGCACACGTCTGAACTCCAGTCA DNA 2: TGACTGGAGTTCAGACGTGTGCTCTTCCGATCTCATGACCTGGTCCTGCCAGAAGTTTCCTTTACCAGTGCGTACTGAGCACTAGATAGC RNA: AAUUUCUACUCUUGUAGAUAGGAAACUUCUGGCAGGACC , the value recorded as its binding signal is -9

Value of measured binding signal for the entry GTTA (dsDNA) DNA 1: GCTATCTAGTGCTCAGTACGCACTGGTTAAGGAAACTTCTGGCAGGACCAGGTCATGAGATCGGAAGAGCACACGTCTGAACTCCAGTCA DNA 2: TGACTGGAGTTCAGACGTGTGCTCTTCCGATCTCATGACCTGGTCCTGCCAGAAGTTTCCTTAACCAGTGCGTACTGAGCACTAGATAGC RNA: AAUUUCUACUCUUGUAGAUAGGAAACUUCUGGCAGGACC : -3

Notebook: ACAT (dsDNA) DNA 1: GCTATCTAGTGCTCAGTACGCACTGACATAGGAAACTTCTGGCAGGACCAGGTCATGAGATCGGAAGAGCACACGTCTGAACTCCAGTCA DNA 2: TGACTGGAGTTCAGACGTGTGCTCTTCCGATCTCATGACCTGGTCCTGCCAGAAGTTTCCTATGTCAGTGCGTACTGAGCACTAGATAGC RNA: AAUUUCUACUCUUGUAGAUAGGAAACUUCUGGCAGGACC , binding signal read as -8.97

binding signal reading for CCTC (dsDNA) DNA 1: GCTATCTAGTGCTCAGTACGCACTGCCTCAGGAAACTTCTGGCAGGACCAGGTCATGAGATCGGAAGAGCACACGTCTGAACTCCAGTCA DNA 2: TGACTGGAGTTCAGACGTGTGCTCTTCCGATCTCATGACCTGGTCCTGCCAGAAGTTTCCTGAGGCAGTGCGTACTGAGCACTAGATAGC RNA: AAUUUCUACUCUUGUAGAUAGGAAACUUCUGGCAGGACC : -6.59

binding signal measured on TGTA (dsDNA) DNA 1: GCTATCTAGTGCTCAGTACGCACTGTGTAAGGAAACTTCTGGCAGGACCAGGTCATGAGATCGGAAGAGCACACGTCTGAACTCCAGTCA DNA 2: TGACTGGAGTTCAGACGTGTGCTCTTCCGATCTCATGACCTGGTCCTGCCAGAAGTTTCCTTACACAGTGCGTACTGAGCACTAGATAGC RNA: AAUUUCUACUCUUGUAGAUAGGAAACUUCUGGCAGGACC = -6.64
